experiment: Stability tests of stabilized Idarubicin HCl, 1% w/v aqueous solution with NH4OAc or NH4OAc + AcOH; assay type: physicochemical; details: NH4OAc 0.5% mol + AcOH 0.5% mol, pH 5.08, 20° C., t = 0

Compound	Measurement Unit	aglycone
CC(=O)[C@]1(O)Cc2c(O)c3c(c(O)c2[C@@H](O[C@H]2C[C@@H](N)[C@H](O)C(C)O2)C1)C(=O)c1ccccc1C3=O.Cl (stereo partly shown) [Idarubicin HCl, Idarubicin hydrochloride]	%	0.59

###

Assay: Stability tests of stabilized Idarubicin HCl, 1% w/v aqueous solution with NH4OAc or NH4OAc + AcOH
Assay type: physicochemical
Conditions: NH4OAc 1.5% mol + AcOH 1.5% mol, pH 4.94, 4° C., 97 hr
Protocol: Starting product was idarubicin hydrochloride, 1% w/v aqueous solution, the analysis of which is shown in the data reported at t=0. 3% mol of NH4OAc with respect to idarubicin hydrochloride was added to the solution at t=0 and the solution was incubated at 4° C. for the indicated time. Starting product was idarubicin hydrochloride, 1% w/v aqueous solution, the analysis of which is shown in the data reported at t=0. […]
Experimental Readout: aglycone (%)

Compound	Experimental Readout	Number
CC(=O)[C@]1(O)Cc2c(O)c3c(c(O)c2[C@@H](O[C@H]2C[C@@H](N)[C@H](O)C(C)O2)C1)C(=O)c1ccccc1C3=O.Cl (stereo partly shown) [Idarubicin HCl, Idarubicin hydrochloride]	aglycone	0.59
